This collection of values is drawn from the supplement of paper PMC9170038.

Reported apparent KD of MS2 coat protein values for the following sequences.
Test system: MS2 coat protein
Experiment: apparent KD of MS2 coat protein; designed switch direction (-1 OFF switch, 1 ON switch): -1; higher = weaker reporter binding
Conditions: Eterna round: R95; input ligand: microRNA oligo, concentration not stated
Field format: number, assumed nM, no unit text.

Quick check: apparent KD of MS2 coat protein on MS2 coat protein, item CUAGAUCUUCGGAUCUAGUACAUGAGGAUCACCCAUGUGACGAGUUGAUCCUCAUACAAGCUUUUUGCUCGUCUUAU [Sensor v3 - Turn-off variant 1 - 16] (puzzle: Sensor v3, turn-off variant 1) ?
21.3

Quick check: apparent KD of MS2 coat protein on MS2 coat protein, item AGUAACAGAGGAUAUACUAUUUUAUGUGUUUGUUAUUUUGAACAUGAGGAUCACCCAUGUAGAAGGCUGAAUAA [JMF 93] (puzzle: Exclusion 2) ?
24

Quick check: apparent KD of MS2 coat protein on MS2 coat protein, item GAUAAGGUAGGAUAUACGAAUAAAAAGGGUAGAAGAAGAACACAUGAGGAUCACCCAUGUAGAAGGACCAAGAG [Mat - Exclusion 2 - Mod of my Tesla design - D23] (puzzle: Exclusion 2) ?
20.6

Quick check: apparent KD of MS2 coat protein on MS2 coat protein, item AAACUGCAUGUGAGGAUAUGCACCGGCUAAACCGGGCAGAAGGCACAUGAGGAUCACCCAUGUCAUCCUAUUGC [Esleisus] (puzzle: Brourd's mod of Exclusion 4) ?
9.01

Quick check: apparent KD of MS2 coat protein on MS2 coat protein, item AGUACUAACACGAAAGUGUUAGUACAAUAAGCUUGUGAAACAUGAGGAUCACCCAUGUCCUCAUAAGCUCGUCUUAG [salish99_TOv2_r3_003] (puzzle: Sensor v3, turn-off variant 2) ?
280

Quick check: apparent KD of MS2 coat protein on MS2 coat protein, item CCAGGCUGUGUGAGGAUAUGCUGGUCCUUGGAUCAGCAGAAGGCACAUGAGGAUCACCCAUGUGAAUAGCUUGG [JL bmx4 3.26] (puzzle: Brourd's mod of Exclusion 4) ?
15.8

Quick check: apparent KD of MS2 coat protein on MS2 coat protein, item CGUGCGUAUGUGAGGAUAUGCUGGUCCUUGGCUCGGCAGAAGGCACAUGAGGAUCACCCAUGUGGUGUCGUACA [salish99_Bmod_ex4_070] (puzzle: Brourd's mod of Exclusion 4) ?
69.4

Quick check: apparent KD of MS2 coat protein on MS2 coat protein, item AAAUGCAAGUAAAGAUCUUACAUGAGGAUCACCCAUGUGCUCGUCUUAUAAAGUACUAUCACGAAAGUGAUAGUACA [Sensor 3, v1 - 27] (puzzle: Sensor v3, turn-off variant 1) ?
76.9

Quick check: apparent KD of MS2 coat protein on MS2 coat protein, item AGGAAGCAAGGAUAUACGAGGAGAAGGUGGAGAUUUAAAGGACAUGAGGAUCACCCAUGUAGAAGGUGCGAGAA [JR_Exclu2_Sub046] (puzzle: Exclusion 2) ?
44.3

Quick check: apparent KD of MS2 coat protein on MS2 coat protein, item UUUUAACAUGAGGAUCACCCAUGUGAGGAUAUCGAAAUUUAUAUUAAUAUUAAUUUUACGAGAAGGCACAUUUU [JMF 34] (puzzle: Exclusion 1) ?
94.6

====

System: MS2 coat protein
Assay: apparent KD of MS2 coat protein, switch ON state; designed switch direction (-1 OFF switch, 1 ON switch): -1; higher = weaker reporter binding
Conditions: FMN input: 0 or 200 uM; Eterna round: R93 (includes R88 designs)
endpoint: apparent KD of MS2 coat protein
Your reply should be a number followed by the unit it is expressed in.

AAUCCACAUGAGGAUCACCCAUGUGAGGAUAUCGUGCAGAAAAAAAAAAAAAACUGCACGAGAAGGCACAUGGA | 35.1 nM
AACAAGUCAGGAUAUACAAAAAGUAAAUAAGUAAAACAAAAGUAGAAGGGACAUGAGGAUCACCCAUGUAAAUA [JR_Exc004_Sub018] | 46.8 nM
AGUAGAUCAGGAUAUACAUAAAUGAUAAUUAUGUAAUUUCUACAUGAGGAUCACCCAUGUAGAAGGGAUCUACA [Ex2 Design 136: Not so Super Stable 24] | 14.4 nM
AUAGUACAUGAGGAUCACCCAUGUCAGGAUAUUCGAAACGAAAAAAAAAAAAAGUGAAGGAGAAGGGACUAUAA [EX1 Malc#10] | 17.5 nM
AAAAUGUCAGGAUAUGCGAAGGCGUCUGAUAGACGAGGCUAGCAGAAGGGACAUGAGGAUCACCCAUGUGGAAA [Power strip 63% 2] | 125 nM

May I ask what apparent KD of MS2 coat protein has been recorded for AAGGAGUGAGGAUAUACAUGAGGAUCACCCAUGUUGAUGGAAACGUCAGAGAAAGAAGGUAGAAGGCACAAGAA [JR_Exclusion3_Sub6] ?
51.2 nM

====

Test system: MS2 coat protein
Experiment: apparent KD of MS2 coat protein; designed switch direction (-1 OFF switch, 1 ON switch): -1; higher = weaker reporter binding
Conditions: input ligand: FMN 200 uM
Reported apparent KD of MS2 coat protein values for the following sequences.

Consider the worked cases shown below.
CCCUAGGGAGGAUAUCCAAUAUAUGACAUGAGGAUCACCCAUGUUUCCACUCGUACCUCCGGAGAAGGCCCAUACC [Ex5 #10] (Eterna round: R97, puzzle: Exclusion 5) | 28 nM
AGUACUCACACGAAAGUGUUAGUACAAUAAGCUUGUGAAACAUGAGGAUCACCCAUGUCCUCAUAAGCUCGUCUUAU [salish99_TOv2_r3_018] (Eterna round: R96, puzzle: Sensor v3, turn-off variant 2) | 16.2 nM

May I ask what apparent KD of MS2 coat protein has been recorded for GGUCGCAGGACAGGAUAUCCAAGCGAUCUAACAUGAGGAUCACCCAUGUGCUAAGGCAGAGGGACGGAGAAGGGUCGAUCGGCC [Inqusodire] (Eterna round: R96, puzzle: Exclusion NG 2) ?
166 nM

May I ask what apparent KD of MS2 coat protein has been recorded for ACAUUGAAUGUGAGGAUAUCGAUGUGAUGGGUUGUCGAGAAGGCACAUGAGGAUCACCCAUGUGGGAAACAGCA [JR_BMEx4_Sub031] (Eterna round: R97, puzzle: Brourd's mod of Exclusion 4) ?
127 nM

May I ask what apparent KD of MS2 coat protein has been recorded for AAGAUGUGAGGAUAUCACGAGAACGUCACACGGACGCUCUCUGAGAAGGCACAUGAGGAUCACCCAUGUCCAAC [EX4 A.21] (Eterna round: R97, puzzle: Exclusion 4) ?
207 nM

====

Test system: MS2 coat protein
Assay: apparent KD of MS2 coat protein; designed switch direction (-1 OFF switch, 1 ON switch): -1; higher = weaker reporter binding
Details: input ligand: none
endpoint: apparent KD of MS2 coat protein (nM)
Field format: number, assumed nM, no unit text.

Consider the worked cases shown below.
ACAUUGAAUGUGAGGAUAUCGAUGUGAUGGGUUGUCGAGAAGGCACAUGAGGAUCACCCAUGUGGGAAACAGCA [JR_BMEx4_Sub031] (Eterna round: R97, puzzle: Brourd's mod of Exclusion 4) | 44.6
GUAACAUGCUGGUGAUCAUACAUGAGGAUCACCCAUGUAACAAGCUUUUUGUUCGUCUUAUAAUUUAAGAUCACCAG [Stov1/7-B3] (Eterna round: R97, puzzle: Sensor, turn-off variant 1) | 21.8
GGGAGGGAUGCAGGAUAUGCGAGGGAGGGAGGAGUAGAAGGGCAUGAGGAUCACCCAUGUGACAUGAGGAUCACCCAUGUGGGA [Success - 29% A] (Eterna round: R96, puzzle: Exclusion NG 1) | 82

May I ask what apparent KD of MS2 coat protein has been recorded for AAAAUAAACCUCAUUUAAAACAUGAGGAUCACCCAUGUAAAAUGCUCGUCUUAUUAAAUGUACUCCUAGUUCGUACA [My solution] (Eterna round: R97, puzzle: Sensor, turn-off variant 1) ?
251

May I ask what apparent KD of MS2 coat protein has been recorded for AAGAAAGGUGACAUGGGCGACAUGAGGAUCACCCAUGUUACAAGCUUGUUGCUCGUCUUAUAAUUAACCCAUGUCAC [LRO Sensor-off var1-21 mod of Stov1-13-A1 by Brourd] (Eterna round: R97, puzzle: Sensor, turn-off variant 1) ?
17.9

====

Test system: MS2 coat protein
Test: apparent KD of MS2 coat protein; designed switch direction (-1 OFF switch, 1 ON switch): 1; higher = weaker reporter binding
Conditions: input ligand: microRNA oligo, concentration not stated
Reported apparent KD of MS2 coat protein values for the following sequences.
Field format: number, assumed nM, no unit text.

UUAAUGAUGUAAGGAUAUACAUGAGGAUUUCUCGUAGAAGGUACAGGACAUGAGGAUCACCCAUGUGUCGCUCCGUAGAGCGUA [JL SSNG1 1.08] (Eterna round: R96, puzzle: Same State NG 1) | 414
UAGGAUCAACGAGGAUAUAAUAGGUUCAAUUUUUUAUAUUGUUUACAUGAGGAUCACCCAUGUUAUUAGAAGGCGUAUGGGAUU [JR_SSNG2_Sub084] (Eterna round: R96, puzzle: Same State NG 2) | 39.9
GAGUAGUUAAAAGGAUAUUGAUUAUUGUAGGAUCAAGAAGGUUUUAACAUGAGGAUCACCCAUGUAGGACUAUUCCUGUGAAAA [Parity 92 - Jieux - Same State NG 1] (Eterna round: R96, puzzle: Same State NG 1) | 10.9

May I ask what apparent KD of MS2 coat protein has been recorded for CCGAUGCUUAUAAAACAUGAGGAUCACCCAUGUGAGACACAUGAGGAUAUGCAGGUCAAAGACUUGCAGAAGGCAUAGCGUCGG [JL SSNG3 3.88] (Eterna round: R96, puzzle: Same State NG 3) ?
360
